Relative luminescence activity, 6h-f-CTZ, Int. values by entry
Assay: Substrate specificity of WNanoKAZ mutants, crude enzyme solution (Example 11)
Type: biochemical
Details: substrate 6h-f-CTZ, Int.
API doc: respond with a numeric literal and nothing else, no unit.

# example entries with known answers
WNanoKAZ-I138Y: single amino acid-substituted WNanoKAZ mutant I138Y; SEQ ID NO: 14 (protein) FTLADFVGDWQQTAGYNQDQVLEQGGLSSLFQALGVSVTPIQKVVLSGENGLKADIHVIIPYEGLSGFQMGLIEMIFKVVYPVDDHHFKVILHYGTLVIDGVTPNMIDYFGRPYEGIAVFDGKKITVTGTLWNGNKIYDERLINPDGSLLFRVTINGVTGWRLCERILA    10
KAZ: 19 kDa protein of native Oplophorus luciferase having luminescence activity; SEQ ID NO: 2 (protein, listed as Oplophorus gracilirostris) FTLADFVGDWQQTAGYNQDQVLEQGGLSSLFQALGVSVTPIQKVVLSGENGLKADIHVIIPYEGLSGFQMGLIEMIFKVVYPVDDHHFKIILHYGTLVIDGVTPNMIDYFGRPYPGIAVFDGKQITVTGTLWNGNKIYDERLINPDGSLLFRVTINGVTGWRLCENILA    0.4
WNanoKAZ-V90I: single amino acid-substituted WNanoKAZ mutant, valine 90 back to isoleucine; SEQ ID NO: 8 (protein) FTLADFVGDWQQTAGYNQDQVLEQGGLSSLFQALGVSVTPIQKVVLSGENGLKADIHVIIPYEGLSGFQMGLIEMIFKVVYPVDDHHFKIILHYGTLVIDGVTPNMIDYFGRPYEGIAVFDGKKITVTGTLWNGNKIIDERLINPDGSLLFRVTINGVTGWRLCERILA    23

Req: Recorded Relative luminescence activity, 6h-f-CTZ, Int. for WNanoKAZ-R166N: single amino acid-substituted WNanoKAZ mutant R166N; SEQ ID NO: 16 (protein) FTLADFVGDWQQTAGYNQDQVLEQGGLSSLFQALGVSVTPIQKVVLSGENGLKADIHVIIPYEGLSGFQMGLIEMIFKVVYPVDDHHFKVILHYGTLVIDGVTPNMIDYFGRPYEGIAVFDGKKITVTGTLWNGNKIIDERLINPDGSLLFRVTINGVTGWRLCENILA , please?
Resp: 8.8
